TARGET: Amine oxidase [flavin-containing] B (Homo sapiens)
Sequence (P27338 whole entry): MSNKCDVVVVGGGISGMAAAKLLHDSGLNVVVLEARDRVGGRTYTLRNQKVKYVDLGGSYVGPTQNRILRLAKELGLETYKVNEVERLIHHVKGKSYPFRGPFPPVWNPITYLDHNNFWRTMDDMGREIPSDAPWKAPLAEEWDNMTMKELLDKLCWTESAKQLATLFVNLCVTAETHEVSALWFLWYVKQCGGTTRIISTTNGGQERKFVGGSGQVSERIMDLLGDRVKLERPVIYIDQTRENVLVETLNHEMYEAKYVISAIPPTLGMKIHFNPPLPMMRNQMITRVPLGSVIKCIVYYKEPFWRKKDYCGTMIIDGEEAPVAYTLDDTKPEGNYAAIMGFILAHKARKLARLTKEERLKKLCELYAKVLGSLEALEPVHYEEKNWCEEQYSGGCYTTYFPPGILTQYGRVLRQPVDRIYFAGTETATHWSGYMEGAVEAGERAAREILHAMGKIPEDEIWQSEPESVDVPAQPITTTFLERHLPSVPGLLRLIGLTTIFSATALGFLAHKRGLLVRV
EXPERIMENT: Inhibition of MAO-B (unknown origin) by luminescence based assay
MEASUREMENT_NAME: pIC50
Scale for pIC50: -log10 of concentration given in mol/L; no unit attached.

Qu. Which pIC50 value belongs to CC1(C)C(N[C@@H]2C[C@H]2c2ccccc2)CCC1N[C@@H]1C[C@H]1c1ccccc1 (stereo partly specified) ?
Ans. 5.03

----------
TARGET: Lysine-specific demethylase 4A (Homo sapiens, UniProt O75164)
Sequence (O75164 whole entry): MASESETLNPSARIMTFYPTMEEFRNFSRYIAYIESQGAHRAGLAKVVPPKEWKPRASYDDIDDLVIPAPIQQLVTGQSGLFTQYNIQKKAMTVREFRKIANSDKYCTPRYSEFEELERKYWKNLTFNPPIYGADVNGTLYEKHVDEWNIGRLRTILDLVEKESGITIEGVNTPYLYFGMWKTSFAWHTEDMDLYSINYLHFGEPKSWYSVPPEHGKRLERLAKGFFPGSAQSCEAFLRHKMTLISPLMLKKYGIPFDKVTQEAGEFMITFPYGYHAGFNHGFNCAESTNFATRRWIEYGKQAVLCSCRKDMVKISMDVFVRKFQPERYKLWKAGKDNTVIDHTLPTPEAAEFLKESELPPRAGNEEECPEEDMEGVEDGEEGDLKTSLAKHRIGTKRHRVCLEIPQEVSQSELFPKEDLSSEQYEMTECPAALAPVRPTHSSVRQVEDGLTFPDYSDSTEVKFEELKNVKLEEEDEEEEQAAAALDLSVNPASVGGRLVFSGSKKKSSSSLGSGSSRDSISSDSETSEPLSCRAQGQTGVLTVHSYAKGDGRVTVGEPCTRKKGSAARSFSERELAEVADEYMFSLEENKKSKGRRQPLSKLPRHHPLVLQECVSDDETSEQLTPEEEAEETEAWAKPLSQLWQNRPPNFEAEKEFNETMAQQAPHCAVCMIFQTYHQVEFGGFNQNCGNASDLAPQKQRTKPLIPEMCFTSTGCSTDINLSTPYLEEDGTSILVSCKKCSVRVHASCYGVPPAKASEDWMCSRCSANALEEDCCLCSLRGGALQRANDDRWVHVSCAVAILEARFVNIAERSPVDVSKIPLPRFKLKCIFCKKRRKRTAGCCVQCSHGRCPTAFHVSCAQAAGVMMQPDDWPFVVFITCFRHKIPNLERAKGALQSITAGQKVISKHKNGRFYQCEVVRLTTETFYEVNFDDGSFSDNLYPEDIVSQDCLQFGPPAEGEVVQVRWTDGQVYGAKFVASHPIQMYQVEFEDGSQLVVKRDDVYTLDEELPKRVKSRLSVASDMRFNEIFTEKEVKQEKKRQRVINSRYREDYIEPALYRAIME
EXPERIMENT: Inhibition of KDM4A (1 to 359 residues) (unknown origin) using ARTKQTARK(me3)-STGGKAPRKQLA-GGK(biotin) peptide as substrate preincubated for 10 mins followed by substrate addition measured after 45 mins by LANCE Ultra assay
MEASUREMENT_NAME: pIC50
When answering, recall that pIC50 equals minus log10 of the concentration in mol/L, and write that number alone.

Qu. Would you kindly share the measured pIC50 for O=C(O)c1ccc(-n2nc(-c3ccccc3O)nc2-c2ccccc2O)cc1 ?
Ans. 5.32

----------
TARGET: UniProtKB Q7LBC6
Sequence (Q7LBC6 whole entry): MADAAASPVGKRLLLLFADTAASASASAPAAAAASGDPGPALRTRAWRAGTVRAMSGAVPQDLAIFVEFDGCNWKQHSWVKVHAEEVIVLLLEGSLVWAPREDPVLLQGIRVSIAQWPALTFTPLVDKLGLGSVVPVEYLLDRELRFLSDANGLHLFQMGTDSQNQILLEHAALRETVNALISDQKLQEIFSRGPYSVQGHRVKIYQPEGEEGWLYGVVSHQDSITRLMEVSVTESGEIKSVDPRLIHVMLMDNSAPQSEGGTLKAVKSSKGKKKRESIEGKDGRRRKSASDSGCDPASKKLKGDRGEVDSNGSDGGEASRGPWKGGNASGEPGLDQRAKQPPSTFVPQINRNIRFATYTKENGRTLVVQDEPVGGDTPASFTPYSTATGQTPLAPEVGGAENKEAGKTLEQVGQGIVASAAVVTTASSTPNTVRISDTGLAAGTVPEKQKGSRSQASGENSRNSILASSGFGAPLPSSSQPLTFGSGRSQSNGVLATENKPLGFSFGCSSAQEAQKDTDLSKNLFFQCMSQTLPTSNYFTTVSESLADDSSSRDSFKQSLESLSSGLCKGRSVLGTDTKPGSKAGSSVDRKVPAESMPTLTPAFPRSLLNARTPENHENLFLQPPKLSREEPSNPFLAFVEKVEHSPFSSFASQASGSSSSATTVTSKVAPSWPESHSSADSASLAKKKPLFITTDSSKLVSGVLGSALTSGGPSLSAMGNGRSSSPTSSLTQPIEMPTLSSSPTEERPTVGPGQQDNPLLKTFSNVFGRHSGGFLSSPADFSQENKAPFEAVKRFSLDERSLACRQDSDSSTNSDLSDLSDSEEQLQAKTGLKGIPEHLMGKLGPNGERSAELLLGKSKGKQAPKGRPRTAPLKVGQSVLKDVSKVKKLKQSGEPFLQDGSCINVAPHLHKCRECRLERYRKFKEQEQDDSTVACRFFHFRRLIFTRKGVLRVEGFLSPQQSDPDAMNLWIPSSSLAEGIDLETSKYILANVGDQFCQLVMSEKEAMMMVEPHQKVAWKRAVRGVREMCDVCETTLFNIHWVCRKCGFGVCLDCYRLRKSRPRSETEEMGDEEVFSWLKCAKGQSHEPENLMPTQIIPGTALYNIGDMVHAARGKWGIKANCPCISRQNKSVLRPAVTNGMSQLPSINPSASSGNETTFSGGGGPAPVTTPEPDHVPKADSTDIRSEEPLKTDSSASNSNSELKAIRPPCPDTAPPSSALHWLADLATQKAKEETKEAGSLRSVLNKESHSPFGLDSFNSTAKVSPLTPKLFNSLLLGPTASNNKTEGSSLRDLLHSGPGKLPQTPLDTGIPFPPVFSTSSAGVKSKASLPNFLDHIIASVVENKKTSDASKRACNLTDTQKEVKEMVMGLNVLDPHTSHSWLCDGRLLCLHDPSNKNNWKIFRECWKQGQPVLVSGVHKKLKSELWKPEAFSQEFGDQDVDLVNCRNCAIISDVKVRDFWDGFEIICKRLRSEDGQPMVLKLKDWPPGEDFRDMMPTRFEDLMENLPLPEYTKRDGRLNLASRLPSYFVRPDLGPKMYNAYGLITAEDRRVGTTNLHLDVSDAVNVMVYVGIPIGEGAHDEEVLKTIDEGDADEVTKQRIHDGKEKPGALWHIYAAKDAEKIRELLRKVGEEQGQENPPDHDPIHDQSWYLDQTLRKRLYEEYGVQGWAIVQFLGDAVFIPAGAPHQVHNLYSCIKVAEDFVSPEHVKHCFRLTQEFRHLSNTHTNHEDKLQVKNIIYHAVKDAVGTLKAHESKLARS
MEASUREMENT_NAME: Kd (µM)
Give the value in µM but do not write µM after it.

Qu. Tell me the measured Kd of CC(=O)Nc1ccc(S(=O)(=O)N[C@H]2CO[C@H]3[C@@H]2OC[C@@H]3Nc2nccc(-c3cccc(F)c3)n2)cc1 , please.
Ans. 16.3

# credit: ChEMBL document CHEMBL5126529
